Exercise: state measured percentage reduction of b-hBSSL binding to CD14+ monocytes for each of the binders provided.
# Measurement Target: T1, Biotinylated human BSSL (human, UniProt P19835 21-753, Biotinylated on glycosacarides, 30-40 biotin/BSSL)
# T1 construct: hBSSL biotinylated in house; also called b-hBSSL; human BSSL-biotin
# T1 sequence: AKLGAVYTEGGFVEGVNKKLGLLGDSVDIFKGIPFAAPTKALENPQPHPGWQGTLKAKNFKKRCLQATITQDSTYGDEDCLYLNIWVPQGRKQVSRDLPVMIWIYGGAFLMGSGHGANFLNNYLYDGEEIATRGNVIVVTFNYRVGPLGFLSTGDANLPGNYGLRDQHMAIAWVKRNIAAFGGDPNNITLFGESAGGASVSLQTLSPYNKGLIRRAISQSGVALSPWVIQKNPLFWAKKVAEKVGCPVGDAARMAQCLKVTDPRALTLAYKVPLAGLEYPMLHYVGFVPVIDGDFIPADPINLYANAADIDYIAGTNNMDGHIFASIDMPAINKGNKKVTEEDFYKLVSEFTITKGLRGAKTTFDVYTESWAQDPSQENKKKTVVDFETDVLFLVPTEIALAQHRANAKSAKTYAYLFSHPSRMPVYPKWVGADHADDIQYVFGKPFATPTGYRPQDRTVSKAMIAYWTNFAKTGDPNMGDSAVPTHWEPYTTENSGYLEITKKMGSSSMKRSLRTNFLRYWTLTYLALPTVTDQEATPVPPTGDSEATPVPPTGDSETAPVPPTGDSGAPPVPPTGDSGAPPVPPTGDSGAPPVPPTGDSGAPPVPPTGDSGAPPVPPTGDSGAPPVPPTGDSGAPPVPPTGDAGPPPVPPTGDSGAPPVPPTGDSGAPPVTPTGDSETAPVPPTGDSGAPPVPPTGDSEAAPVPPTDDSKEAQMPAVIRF
# Test Summary: flow cytometry displacement assay; 1.5 ug antibody, 1 ug b-hBSSL
One number for each entry, in %.

Binder | Unit Info | Readout Number
S-SL048-107 hIgG4 S228P (antibody, V domains shown, Tested as human IgG4 S228P) VH: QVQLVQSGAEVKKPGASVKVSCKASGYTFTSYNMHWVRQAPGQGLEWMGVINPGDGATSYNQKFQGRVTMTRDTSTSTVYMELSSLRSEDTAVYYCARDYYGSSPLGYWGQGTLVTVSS VL: DIQMTQSPSSLSASVGDRVTITCRASPSISYLNWYQQKPGKAPKLLIYATSSLPSGVPSRFSGSGSGTDFTLTISSLQPEDFATYYCQQRSSSPTFGQGTKLEIK | % | 37

Noted for S-SL048-108 hIgG4 S228P (antibody, V domains shown, Tested as human IgG4 S228P) VH: QVQLVQSGAEVKKPGASVKVSCKASGYTFTSYNMHWVRQAPGQGLEWIGVINPSDGATSYAQKFKGRVTMTRDTSTSTVYMELSSLRSEDTAVYYCARDYYGSSPLGYWGQGTLVTVSS VL: DIQMTQSPSSLSASVGDRVTITCSASPSISYLNWYQQKPGKAPKLLIYATSSLASGVPSRFSGSGSGTDFTLTISSLQPEDFATYYCQQRSSSPTFGQGTKLEIK : its percentage reduction of b-hBSSL binding to CD14+ monocytes reads 41
